System: PSMA expressing cells (LnCap)
Test: FACS binding to PSMA expressing cells
Assay type: cell-based
Details: biotinylated compounds
Bridge positions count the residues as written; N and C are the ends. Square brackets hold non-standard residues; d marks the D form. NMeF = CN[C@@H](Cc1ccccc1)C(=O)O; hPhe = N[C@@H](CCc1ccccc1)C(=O)O
observationType: EC50

Query string: Which EC50 value is on record for P-22 ([NMeF]DDSVWD[hPhe]YC-NH2; bridge N-10; not fully specified (N-terminus, bridges)) [Compound P-22] ?
Result string: 100 to 1000 nM
